What Wheat plant response rating was measured for each of the following?
Test system: wheat
protocol_details: Test C pre-/postemergence test
Assay type: in vivo, Triticum aestivum
recorded_conditions: 125 g ai/ha, preemergence; scale 0 (no effect) to 100 (complete control)
Answers are plain numbers.

Consider the worked cases shown below.
>  <compound>
Cn1nc(C(F)(F)F)c(C[S+]([O-])c2ccc(Cl)c[n+]2[O-])c1OCC(F)(F)F (racemic) [Compound 62]

>  <assay_system>
wheat

>  <Wheat plant response rating>
80

$$$$
>  <compound>
Cn1nc(C(F)(F)F)c(CS(=O)(=O)c2cccc[n+]2[O-])c1OCC(F)F [Compound 81]

>  <assay_system>
wheat

>  <Wheat plant response rating>
80

$$$$
>  <compound>
CC(c1c(C(F)(F)F)nn(CC(F)(F)F)c1Cl)[S+]([O-])c1cccc[n+]1[O-] (centres unmarked) [Compound 46]

>  <assay_system>
wheat

>  <Wheat plant response rating>
100

$$$$
>  <compound>
CCc1cc[n+]([O-])c([S+]([O-])Cc2c(C(F)(F)F)nn(C)c2OC(F)F)c1 (centres unmarked) [Compound 101]

>  <assay_system>
wheat

>  <Wheat plant response rating>
85

$$$$
>  <compound>
Cc1cc[n+]([O-])c(S(=O)(=O)Cc2c(C(F)(F)C(F)(F)F)nn(C)c2OCC(F)(F)F)c1 [Compound 99]

>  <assay_system>
wheat

>  <Wheat plant response rating>
55

$$$$

Please state Wheat plant response rating for every compound in the list that follows.
1. Cn1nc(C(F)(F)C(F)(F)F)c(C[S+]([O-])c2cccc[n+]2[O-])c1OCC(F)(F)F (centres unmarked) [Compound 79]
2. Cn1nc(C(F)(F)F)c(C[S+]([O-])c2ccc(Cl)c[n+]2[O-])c1OCC(F)F (centres unmarked) [Compound 85]
3. CC(C)c1cc[n+]([O-])c([S+]([O-])Cc2c(C(F)(F)F)nn(C)c2OC(F)F)c1 (centres unmarked) [Compound 109]

1: 60; 2: 70; 3: 65

###

Would you mind telling me the reported Plant response rating, Ragweed of each entry?
Test system: common ragweed
protocol_details: Test C pre-/postemergence test
Assay type: in vivo, Ambrosia elation
recorded_conditions: Preemergence, 31 g ai/ha; scale 0 to 100 (0 no effect, 100 complete control)
Numbers only.

# count of solved cases: 3
>  <compound>
Cn1nc(C(F)(F)F)c(C[S+]([O-])c2ccc(F)c[n+]2[O-])c1OCC(F)(F)F (stereo not shown)

>  <Plant response rating, Ragweed>
100

$$$$
>  <compound>
CC(c1c(C(F)(F)F)nn(CC(F)(F)F)c1Cl)[S+]([O-])c1cccc[n+]1[O-] (stereo not shown)

>  <Plant response rating, Ragweed>
0

$$$$
>  <compound>
Cn1nc(C(F)(F)F)c(C[S+]([O-])c2cc(F)cc[n+]2[O-])c1Cl (racemic)

>  <Plant response rating, Ragweed>
5

$$$$

Please find the next compound below.
// query Plant response rating, Ragweed value for entry Cc1cc[n+]([O-])c([S+]([O-])Cc2c(C(F)(F)F)nn(C)c2Cl)c1 (racemic)
0

###

System: annual bluegrass
protocol_details: Test F preemergence test
Type: in vivo, Poa annua
recorded_conditions: 125 g ai/ha, preemergence, scale 0 to 100
metric: Bluegrass plant response rating

Example entries begin here.
>  <molecule>
CC(Oc1c(C[S+]([O-])c2ccc(Cl)c[n+]2[O-])c(C(F)(F)F)nn1C)C(F)(F)F (stereo not shown)

>  <Bluegrass plant response rating>
100

$$$$
>  <molecule>
CCn1nc(C(F)(F)F)c(CS(=O)(=O)c2cc(C)cc[n+]2[O-])c1OCC(F)(F)F

>  <Bluegrass plant response rating>
90

$$$$

Please look at the items below and tell me Bluegrass plant response rating for each one, in order.
1. CCn1nc(C(F)(F)F)c(C[S+]([O-])c2cc(C)cc[n+]2[O-])c1OCC(F)(F)F (racemic)
2. Cn1nc(C(F)(F)F)c(C[S+]([O-])c2cccc[n+]2[O-])c1Cl (stereo not shown)
3. CC(Oc1c(C[S+]([O-])c2cccc[n+]2[O-])c(C(F)(F)F)nn1C)C(F)(F)F (stereo not shown)
4. Cn1nc(C(F)(F)C(F)(F)F)c(C[S+]([O-])c2cccc[n+]2[O-])c1OCC(F)(F)F (stereo not shown)

80
70
75
100

May I ask what Bluegrass plant response rating has been recorded for Cc1cc[n+]([O-])c(S(=O)(=O)C(Cl)c2c(C(F)(F)F)nn(C)c2OCC(F)(F)F)c1 (racemic) ?
80

###

Test system: purple nutsedge
protocol_details: Test F preemergence test
Type: in vivo, Cyperus rotundus
recorded_conditions: Preemergence; 31 g ai/ha; scale 0 to 100
Label condition not met if Plant response rating, Purple Nutsedge falls below 40; label condition met in every other case.

Would you please look over these solved cases?
>  <molecule>
Cc1cc[n+]([O-])c(S(=O)(=O)Cc2c(C(F)(F)F)nn(C)c2Cl)c1

>  <assay_system>
purple nutsedge

>  <group_label>
condition not met

$$$$
>  <molecule>
CC(Oc1c(C[S+]([O-])c2cccc[n+]2[O-])c(C(F)(F)F)nn1C)C(F)(F)F (stereo not shown)

>  <assay_system>
purple nutsedge

>  <group_label>
condition met

$$$$
>  <molecule>
Cn1nc(C(F)(F)F)c(CS(=O)(=O)c2cccc[n+]2[O-])c1OCC(F)(F)F

>  <assay_system>
purple nutsedge

>  <group_label>
condition not met

$$$$
>  <molecule>
CCn1nc(C(F)(F)F)c(CS(=O)(=O)c2cc(C)cc[n+]2[O-])c1OCC(F)(F)F

>  <assay_system>
purple nutsedge

>  <group_label>
condition met

$$$$
>  <molecule>
Cc1cc[n+]([O-])c(S(=O)(=O)Cc2c(C(F)(F)F)nn(C)c2OCC(F)(F)F)c1

>  <assay_system>
purple nutsedge

>  <group_label>
condition met

$$$$

Reported Plant response rating, Purple Nutsedge reaches at least 40 for Cn1nc(C(F)(F)F)c(C[S+]([O-])c2ccc(Cl)c[n+]2[O-])c1OCC(F)F (stereo not shown) ?
condition not met

Hi, just wondering whether CC(c1c(C(F)(F)F)nn(C)c1OCC(F)(F)F)S(=O)(=O)c1cccc[n+]1[O-] (racemic) shows Plant response rating, Purple Nutsedge of 40 or higher.
condition not met

Given Cn1nc(C(F)(F)F)c(CS(=O)(=O)c2cccc[n+]2[O-])c1OC(F)F , state whether its Plant response rating, Purple Nutsedge is at least 40.
condition met

Plant response rating, Purple Nutsedge >= 40 for Cc1cc[n+]([O-])c(S(=O)(=O)C(Cl)c2c(C(F)(F)F)nn(C)c2Cl)c1 (racemic) ?
condition not met

###

Tested on: velvetleaf
protocol_details: Test C pre-/postemergence test
Assay type: in vivo, Abutilon theophrasti
recorded_conditions: Preemergence, 31 g ai/ha; scale 0 to 100 (0 no effect, 100 complete control)
metric: Plant response rating, Velvetleaf

Illustrative cases are given below, each with its answer.
>  <compound>
Cn1nc(C(F)(F)F)c(C[S+]([O-])c2ccc(Cl)c[n+]2[O-])c1Cl (racemic) [Compound 17]

>  <Plant response rating, Velvetleaf>
0

$$$$
>  <compound>
Cn1nc(C(F)(F)F)c(C(Cl)S(=O)(=O)c2cccc[n+]2[O-])c1OCC(F)(F)F (racemic) [Compound 36]

>  <Plant response rating, Velvetleaf>
0

$$$$
>  <compound>
CCc1cc[n+]([O-])c(S(=O)(=O)Cc2c(C(F)(F)F)nn(C)c2OC(F)F)c1 [Compound 102]

>  <Plant response rating, Velvetleaf>
0

$$$$
>  <compound>
Cn1nc(C(F)(F)F)c(C[S+]([O-])c2cc(Br)cc[n+]2[O-])c1Cl (racemic) [Compound 35]

>  <Plant response rating, Velvetleaf>
55

$$$$
>  <compound>
Cn1nc(C(F)(F)F)c(CS(=O)(=O)c2cccc[n+]2[O-])c1OCC(F)F [Compound 81]

>  <Plant response rating, Velvetleaf>
0

$$$$
>  <compound>
Cn1nc(C(F)(F)F)c(C[S+]([O-])c2cc(C(C)(C)C)cc[n+]2[O-])c1OC(F)F (racemic) [Compound 24]

>  <Plant response rating, Velvetleaf>
55

$$$$

Each of the following entries comes with a recorded value; kindly state Plant response rating, Velvetleaf for each.
1. Cn1nc(C(F)(F)F)c(C[S+]([O-])c2cc(C(F)(F)F)cc[n+]2[O-])c1Cl (racemic) [Compound 34]
2. Cn1nc(C(F)(F)F)c(CS(=O)(=O)c2ccc(Cl)c[n+]2[O-])c1Cl [Compound 18]
3. CC(c1c(C(F)(F)F)nn(CC(F)(F)F)c1Cl)[S+]([O-])c1cccc[n+]1[O-] (centres unmarked) [Compound 46]
4. CCn1nc(C(F)(F)F)c(CS(=O)(=O)c2cc(C)cc[n+]2[O-])c1OCC(F)(F)F [Compound 64]

40
0
0
45

Give Plant response rating, Velvetleaf for each of the items listed below.
1. Cn1nc(C(F)(F)F)c(C[S+]([O-])c2cccc[n+]2[O-])c1OCC(F)(F)F (racemic) [Compound 28]
2. CC(C)c1cc[n+]([O-])c([S+]([O-])Cc2c(C(F)(F)F)nn(C)c2OC(F)F)c1 (centres unmarked) [Compound 109]
3. CCn1nc(C(F)(F)F)c(C[S+]([O-])c2cccc[n+]2[O-])c1OCC(F)(F)F (racemic) [Compound 65]
4. [O-][n+]1cc(Cl)ccc1[S+]([O-])Cc1c(C(F)(F)F)nn(CC(F)(F)F)c1Cl (centres unmarked) [Compound 47]
5. Cc1cc[n+]([O-])c(S(=O)(=O)Cc2c(C(F)(F)F)nn(C)c2OC(C)C(F)(F)F)c1 (centres unmarked) [Compound 96]

80
10
55
0
0

Report Plant response rating, Velvetleaf for every entry below.
1. CC(c1c(C(F)(F)F)nn(C)c1OCC(F)(F)F)S(=O)(=O)c1cccc[n+]1[O-] (racemic) [Compound 33]
2. Cc1cc[n+]([O-])c(S(=O)(=O)Cc2c(C(F)(F)F)nn(C)c2Cl)c1 [Compound 19]

1: 100; 2: 0
